experiment.description: Photographic characteristics (sensitivity, maximum density, maximum absorption) of silver halide color photographic material containing coupler
condition.info: cyan dye formed
property.name: Maximum absorption (nm)

Given item CCC(C)(C)c1ccc(OC(C(=O)Nc2cc(O)c(NC(=O)c3c(F)c(F)c(F)c(F)c3F)cc2Cl)C(C)C)c(C(C)(C)CC)c1 (stereo not drawn) , the value recorded as its Maximum absorption is 655

Given item CCCCCCCCCCCCC(Oc1ccc(O)c(C(C)(C)C)c1)C(=O)Nc1ccc(NC(=O)c2ccccc2F)c(O)c1 (stereo not drawn) [Control coupler (G)] , the value recorded as its Maximum absorption is 640

Given item CCCCCCCCCCCCC(Oc1ccc(NS(=O)(=O)CCCC)cc1)C(=O)Nc1cc(O)c(NC(=O)c2ccccc2)cc1Cl (stereo not drawn) [Control coupler (F)] , the value recorded as its Maximum absorption is 641

Given item CCCCS(=O)(=O)Nc1ccc(OC(C(=O)Nc2cc(O)c(NC(=O)c3c(F)c(F)c(F)c(F)c3F)cc2Cl)C(C)C)cc1 (stereo not drawn) , the value recorded as its Maximum absorption is 657

Given item CCC(Oc1ccc(C(C)(C)CC)cc1C(C)(C)CC)C(=O)Nc1cc(Cl)c(C)c(Cl)c1O (stereo not drawn) [Control coupler (E)] , the value recorded as its Maximum absorption is 654

Given item CCCCCCCCCCCCCCCc1cccc(OC(C(=O)Nc2cc(O)c(NC(=O)c3c(F)c(F)c(F)c(F)c3F)cc2Cl)C(C)C)c1 (stereo not drawn) , the value recorded as its Maximum absorption is 654

Just for reference, patent US4532202A is where these values come from.
